Data credit: patent US20160185837A1

Measured cAMP EC50 by item
# Measured On: T1, mouse GIP receptor (mouse) (UniProt Q0P543)
# T1 sequence (looked up): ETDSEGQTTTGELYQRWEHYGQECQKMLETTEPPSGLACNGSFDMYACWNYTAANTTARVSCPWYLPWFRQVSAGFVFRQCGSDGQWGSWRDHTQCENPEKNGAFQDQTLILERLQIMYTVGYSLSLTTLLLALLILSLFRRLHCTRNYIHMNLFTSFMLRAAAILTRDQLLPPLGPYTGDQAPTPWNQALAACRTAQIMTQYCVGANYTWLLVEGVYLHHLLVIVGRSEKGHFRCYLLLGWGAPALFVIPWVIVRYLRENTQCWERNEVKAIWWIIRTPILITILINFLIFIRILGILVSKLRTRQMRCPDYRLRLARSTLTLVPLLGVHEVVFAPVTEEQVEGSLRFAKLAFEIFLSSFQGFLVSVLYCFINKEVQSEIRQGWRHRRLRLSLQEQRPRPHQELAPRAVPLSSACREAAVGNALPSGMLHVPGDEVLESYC
# Test: cell-based or functional assay
Measured Attribute: cAMP EC50 (nM)

[
  {
    "Binder": "IP387 (Fc fusion) YSEGTFISDYSIAMDKIHQQDFVNWLLAQKGGGGGSGGGGSGGGGSGGGGSGGGGSGGGGSGGGGSGGGGSACPPC",
    "Measured Attribute": "cAMP EC50",
    "Experimental Value": 0.019
  },
  {
    "Binder": "IP344 (Fc fusion) YSEGTFISDYSIAMDKIHQQDFVNWLLAQKGGGGGSGGGGSGGGGSGGGGSGGGGSA",
    "Measured Attribute": "cAMP EC50",
    "Experimental Value": 0.011
  },
  {
    "Binder": "IP337 (Fc fusion) YSEGTFISDYSIAMDKIHQQDFVNWLLAQKGGGGGSGGGGSGGGGSGGGGSGGGGSGGGGSGGGGSA",
    "Measured Attribute": "cAMP EC50",
    "Experimental Value": 0.013
  },
  {
    "Binder": "IP407 (Fc fusion) YSEGTFTSDYSKLLEEEAIRLFIEWLLAGGGGGGSGGGGSGGGGSGGGGSATHTCPPC",
    "Measured Attribute": "cAMP EC50",
    "Experimental Value": 2.3
  },
  {
    "Binder": "IP209 (Fc fusion) YSEGTFTSDYSSYMERQAIDEFIAWLLKGGAAAGGSGSTASSGSGSATGGGGAATHTCPPCPAPEF",
    "Measured Attribute": "cAMP EC50",
    "Experimental Value": 4.9
  },
  {
    "Binder": "IP348 (Fc fusion) YSEGTFTSDYSKLLERQAIDEFIASLLKGGGGGGGSGGGGSGGGGSGGGGSGGGGSGGGGSA",
    "Measured Attribute": "cAMP EC50",
    "Experimental Value": 1.4
  },
  {
    "Binder": "IP404 (Fc fusion) YSEGTFTSLYRIHKERQAIDEFIAKLLKGGGSGGGGSGGGGSGGGGSGGGGSGGGGSGGGGSGGGGSACPPC",
    "Measured Attribute": "cAMP EC50",
    "Experimental Value": 0.05
  },
  {
    "Binder": "IP346 (Fc fusion) YSEGTFTSDYSKLLERQAIDEFIAFLLKGGGGGGGSGGGGSGGGGSGGGGSGGGGSGGGGSA",
    "Measured Attribute": "cAMP EC50",
    "Experimental Value": 0.16
  },
  {
    "Binder": "IP247 (Fc fusion) YSEGTFTSDYSKLLEKIHQQLFIEWLVKGPAAAGGSGSTASSGSGSATGGGGAATHTCPPCPAPEF",
    "Measured Attribute": "cAMP EC50",
    "Experimental Value": 2.3
  },
  {
    "Binder": "IP385 (Fc fusion) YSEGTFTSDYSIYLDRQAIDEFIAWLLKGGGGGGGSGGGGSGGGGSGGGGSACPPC",
    "Measured Attribute": "cAMP EC50",
    "Experimental Value": 18
  },
  {
    "Binder": "IP350 (Fc fusion) YSEGTFTSDYSKLLERQAIDEFIAGLLKGGGGGGGSGGGGSGGGGSGGGGSGGGGSGGGGSA",
    "Measured Attribute": "cAMP EC50",
    "Experimental Value": 1.3
  }
]
